This collection of values is drawn from ChEMBL document CHEMBL1132935.

Kindly state IC50 for each of the entries shown.
system: Trypanosoma cruzi; assay: 50% inhibitory concentration against the growth of Trypanosoma cruzi (Epimastigotes); format: functional, organism-based

Need IC50, item N#CSCCSc1ccc(Oc2ccccc2)cc1 0.87 µM

I am curious: what IC50 value has been reported for N#CSCCOc1cccc(Br)c1 ? < 4 µM

Which IC50 is listed for C[C@H](COc1ccc(Oc2ccccc2)cc1)SC#N ? > 82 µM

Data request, read-out IC50, for CC(=O)N(CCO)c1ccc(Oc2ccccc2)cc1 277 µM

Could you tell me which IC50 is on file for CC(=O)N(CCSC#N)c1ccc(Oc2ccccc2)cc1 ? 14.4 µM

Quick check: IC50 of Brc1cccc(OCCOC2CCCCO2)c1 (stereo unspecified) ? 104 µM

Any idea what its IC50 is? The compound is c1ccc(Oc2ccc(SCCOC3CCCCO3)cc2)cc1 (stereo unspecified) 291 µM

Entry under review: c1ccc(Oc2ccc(COC3CCCCO3)cc2)cc1 (stereo unspecified) . Reported IC50? 102 µM

Tell me the measured IC50 of Cc1cccc(C)c1Oc1ccc(OCCOC2CCCCO2)cc1 (stereo unspecified) , please. > 60 µM

Given the compound N#CSCCNc1ccc(Oc2ccccc2)cc1 , what is its reported IC50? 141 µM

Consider the compound shown here: N#CSCCOc1ccc(Oc2ccccc2)cc1I What is its recorded IC50? 1.8 µM

Field request: IC50 | item: N#CSCCOc1ccc(Oc2cccc(Br)c2)cc1 2.9 µM

Sample Ic1cc(Oc2ccccc2)ccc1OCCOC1CCCCO1 (stereo unspecified) — what was its IC50? 45 µM

Quick one: IC50 for CC(=O)N(CCOC1CCCCO1)c1ccc(Oc2ccccc2)cc1 (stereo unspecified) ? 211 µM

Param item = C[C@@H](COc1ccc(Oc2ccccc2)cc1)SC#N ; retrieve measured IC50. 25 µM

Please report the recorded IC50 for O=c1c2ccccc2oc2ccc(OCCOC3CCCCO3)cc12 (stereo unspecified) . > 60 µM

# get_value(readout='IC50', item= Clc1ccc(OCCOC2CCCCO2)cc1 (stereo unspecified) ) > 390 µM

Reported IC50, compound N#CSCCOc1ccc(Oc2ccccc2)cc1Cl : ____ 24.5 µM

Query: IC50; subject: N#CSCCOc1ccc(Cl)cc1Cl 1 µM

Given N#CSCCOc1ccc(Oc2ccccc2)cc1Br , state its recorded IC50. 1.4 µM

// lookup IC50 for Cc1ccccc1Oc1ccc(OCCOC2CCCCO2)cc1 (stereo unspecified) 143 µM

What value of IC50 has been recorded for this entry: Cc1ccccc1Oc1ccc(OCCSC#N)cc1 2.7 µM

Bench note: what IC50 did N#CSCc1ccc(Oc2ccccc2)cc1 show? 18.7 µM

Quick one: IC50 of Brc1cccc(Oc2ccc(OCCOC3CCCCO3)cc2)c1 (stereo unspecified) ? 138 µM

Give the measured IC50 of N#CSCCOc1ccc(Cl)cc1 . 14.1 µM

Param item = N#CSCCOc1ccc2oc3ccccc3c(=O)c2c1 ; retrieve measured IC50. 54 µM
